test system: Male albino rats; assay: Anorectic test (effect on food intake of fasted rats); format: in vivo; details: sc; rat; dose which reduced the food intake by 50% over the reference value; 2 hour test period
Structures can show the parent of a compound that is named as a salt.
Each item that follows carries a reported log10(ED50).
Recall that a logarithmic scale is used here: each number is log10 of ED50 in mg/kg.

# example entries with known answers
{"columns": ["compound", "recordedValue"],
 "data": [
  ["Cc1c2c(nc3ccccc13)CCN(CC(C)O)CC2.Cl.Cl (centres unmarked)", 0.30],
  ["Cc1c2c(nc3ccccc13)CCNCC2.Cl.Cl", -0.70],
  ["CCN1CCc2nc3ccccc3c(C)c2CC1.Cl.Cl", 0.28]
]}

// log10(ED50) lookup, key: CCCc1c2c(nc3ccccc13)CCNCC2.Cl.Cl
-0.05

// log10(ED50) lookup, key: CCOC(=O)N1CCc2nc3ccccc3c(C)c2CC1
-0.10

// log10(ED50) lookup, key: Cc1c2c([n+]([O-])c3ccccc13)CCNCC2 [G, hydrochloride]
-0.10

// log10(ED50) lookup, key: Cc1c2c(nc3ccccc13)CCCNC2.Cl.Cl
0.04

// log10(ED50) lookup, key: Cc1c2c(nc3ccc(Cl)cc13)CCNCC2.Cl.Cl
0.18

====

Each item that follows carries a reported LD50 at 24 h.
assay: Acute toxicity (LD50 in mice); conditions: in vivo, sc; mouse, 24 hours observation
Structures can show the parent of a compound that is named as a salt.
Report the value in mg/kg with no unit label.

// LD50 at 24 h lookup, key: Cc1c2c(nc3ccccc13)CCNCC2.Cl.Cl
83

// LD50 at 24 h lookup, key: Cc1c2c([n+]([O-])c3ccccc13)CCNCC2 [G, hydrochloride]
315

====

Each item that follows carries a reported ED50.
test system: Male albino rats; experiment: Anorectic test (effect on food intake of fasted rats); format: in vivo; conditions: sc; rat; dose which reduced the food intake by 50% over the reference value; 2 hour test period
Report the value in mg/kg with no unit label.

# example entries with known answers
{"columns": ["compound", "targetOfAssay", "ED50 / mg/kg"],
 "data": [
  ["Cc1c2c(nc3ccccc13)C(O)CNCC2.Cl.Cl (stereo not drawn) [H]", "Male albino rats", 0.3],
  ["Cc1c2c(nc3cccc(Cl)c13)CCNCC2 [K]", "Male albino rats", 1.3]
]}

Pending compound:
// ED50 lookup, key: CCCN1CCc2nc3ccccc3c(C)c2CC1.Cl.Cl [I]
0.9

====

Each item that follows carries a reported ED50.
system: Male albino rats; experiment: Anorectic test (effect on food intake of fasted rats); assay type: in vivo; details: sc; rat; dose which reduced the food intake by 50% over the reference value; 2 hour test period
Report the value in mg/kg with no unit label.

{"columns": ["molecule", "recordedValue"],
 "data": [
  ["COC(=O)N1CCc2nc3ccccc3c(C)c2CC1", 1.8],
  ["Cc1c2c(nc3ccccc13)CCN(C(=O)OC(C)(C)C)CC2.Cl", 1.1]
]}

// ED50 lookup, key: CCOC(=O)N1CCc2c(nc3ccccc3c2C)C(O)C1 (stereo not drawn)
4

====

Each item that follows carries a reported LD50 at 24 h.
test: Acute toxicity (LD50 in mice); conditions: in vivo, sc; mouse, 24 hours observation
Report the value in mg/kg with no unit label.

{"columns": ["molecule", "unitAbbreviation", "recordedValue"],
 "data": [
  ["CCOC(=O)N1CCc2nc3ccccc3c(C)c2CC1", "mg/kg", 810],
  ["CCN1CCc2nc3ccccc3c(C)c2CC1.Cl.Cl", "mg/kg", 180],
  ["Cc1c2c(nc3ccc(Cl)cc13)CCNCC2.Cl.Cl", "mg/kg", 215],
  ["Cc1c2c(nc3ccccc13)C(O)CNCC2.Cl.Cl (stereo not drawn)", "mg/kg", 126],
  ["Cc1c2c(nc3ccccc13)CCCNC2.Cl.Cl", "mg/kg", 195]
]}

Pending molecule:
// LD50 at 24 h lookup, key: CCCc1c2c(nc3ccccc13)CCNCC2.Cl.Cl
148
